Below, each entry is listed alongside its reported V u,brain.
- procedure.text: Unbound fraction in brain homogenate (fu,brain); Vu,brain calculated from it with pH-partition model
- setup.conditions: calculated from reported fu,brain and tracer pKa with pH-partition model (tracers with fu,brain tabulated, footnote h of Table S1)
// return numeric value only (unit: mL/g brain, not printed)

Previously resolved entries follow.
[11CH3]Oc1ccccc1O[C@@H](c1ccccc1)[C@H]1CNCCO1 [[^11C]MeNER]	31
C=CCN1CCC[C@H]1CNC(=O)c1cc(CCC[18F])cc(OC)c1OC [[^18 F]Fallypride]	18
CCCN(CCC)CCc1ccc(O[11CH3])c(OCCc2ccccc2)c1 [[^11C]NE100]	96
[11CH3]N1CCc2cc(Cl)c(O)cc2[C@@H](c2ccccc2)C1 [[^11C]SCH23390]	32
Cc1nccc2c1[nH]c1cc(O[11CH3])ccc12 [[^11C]Harmine]	25

Query: Item CN([11CH3])Cc1ccccc1Sc1ccc(C#N)cc1N [[^11C]DASB] has what recorded V u,brain?
Result: 31

Query: Then this molecule: CCN1CCC[C@H]1CNC(=O)c1cc(Br)cc(OC)c1O[11CH3] [[^11C]FLB457]
Result: 26

Query: Now consider CC(=O)N(Cc1ccccc1OCC[18F])c1cnccc1Oc1ccccc1 [[^18 F]FEPPA] and answer again.
Result: 15

Query: Another molecule to look at: COc1ccc(-n2nnnc2C(F)(F)F)cc1CN[C@H]1CCCN[C@H]1c1ccccc1 [[^11C]GR205171]
Result: 57

Query: What about O=C(c1ccc([18F])cc1)C1CCN(CCn2c(=S)[nH]c3ccccc3c2=O)CC1 [[^18 F]Altanserin] ?
Result: 122

Query: COc1c(O[11CH3])cccc1[C@H](O)C1CCN(CCc2ccc(F)cc2)CC1 [[^11C]MDL100907] ?
Result: 17

Query: # repeat for [11CH3]OC(=O)N1CCN(C(=O)Cc2ccc(Cl)c(Cl)c2)[C@H](CN2CCCC2)C1 [[^11C]GR103545]
Result: 41

Query: Please answer likewise for [11CH3]N1C(=O)Cc2cc3c(CCC4CCN(Cc5ccccc5)CC4)noc3cc21 [[^11C]CP-126998]
Result: 41

Query: Further, for COc1ccccc1N1CCN(CCN(C(=O)c2ccc([18F])cc2)c2ccccn2)CC1 [[^18 F]MPPF] ?
Result: 14

Query: Can you handle CCC(C)N(C)C(=O)c1cc2ccccc2c(-c2ccccc2Cl)n1 (stereo not drawn) [[^11C]PK11195] next?
Result: 59
